Test: In vivo pharmacokinetics after oral or intravenous administration
Conditions: both sexes, rat, plasma, iv; SD rats, 10 mg/kg
Where a name gives a salt, the structure may show the parent alone.
Test Readout: half-life (min)
Report only the number, with the unit min understood.

In: What value of measured half-life is listed for CN(Cc1nc2c(N3CCOCC3)nc(-c3ccc(N)cc3)nc2n1C)c1ncc(C(=O)NO)cn1 [PM, Purinostat mesylate] ?
Out: 20.4

---

Assay: In vivo pharmacokinetics after oral or intravenous administration
Conditions: both sexes, rat, plasma, iv; SD rats, 10 mg/kg
Where a name gives a salt, the structure may show the parent alone.
Test Readout: clearance (mL/min/kg)
Answer format: numeric, mL/min/kg implied, no suffix.

In: Form field: reported clearance of CN(Cc1nc2c(N3CCOCC3)nc(-c3ccc(N)cc3)nc2n1C)c1ncc(C(=O)NO)cn1 [PM, Purinostat mesylate]
Out: 225

---

Experiment: In vivo pharmacokinetics after oral or intravenous administration
Conditions: both sexes, rat, plasma, po; SD rats, 10 mg/kg
Where a name gives a salt, the structure may show the parent alone.
Test Readout: half-life (h)
# unit: h | format: bare number

In: Form field: reported half-life of CN(Cc1nc2c(N3CCOCC3)nc(-c3ccc(N)cc3)nc2n1C)c1ncc(C(=O)NO)cn1 [PM, Purinostat mesylate]
Out: 1.62

---

Experiment: In vivo pharmacokinetics after oral or intravenous administration
Conditions: both sexes, rat, plasma; SD rats, oral versus intravenous, 10 mg/kg; read-out: calculated bioavailability
Counter-ions that a name gives are not always drawn.
Test Readout: bioavailability (%)
Value expressed in %; do not type the unit.

In: Which bioavailability is reported for this molecule? CN(Cc1nc2c(N3CCOCC3)nc(-c3ccc(N)cc3)nc2n1C)c1ncc(C(=O)NO)cn1 [PM, Purinostat mesylate]
Out: 6.71

---

Experiment: In vivo pharmacokinetics after oral or intravenous administration
Conditions: both sexes, rat, plasma; SD rats, oral administration, 10 mg/kg; read-out: maximum value (Cmax) of plasma concentration
Where a name gives a salt, the structure may show the parent alone.
Test Readout: Cmax (µg/mL)
Expressed in µg/mL, but write only the number.

In: Entry under review: CN(Cc1nc2c(N3CCOCC3)nc(-c3ccc(N)cc3)nc2n1C)c1ncc(C(=O)NO)cn1 [PM, Purinostat mesylate] . Reported Cmax?
Out: 0.0493

---

Experiment: In vivo pharmacokinetics after oral or intravenous administration
Conditions: both sexes, rat, plasma, iv; SD rats, 10 mg/kg
Where a name gives a salt, the structure may show the parent alone.
Test Readout: Tmax (min)
Only the number, expressed in min, is required.

In: GET /values?readout=Tmax&item= CN(Cc1nc2c(N3CCOCC3)nc(-c3ccc(N)cc3)nc2n1C)c1ncc(C(=O)NO)cn1 [PM, Purinostat mesylate]
Out: 4.67

---

Test: In vivo pharmacokinetics after oral or intravenous administration
Conditions: both sexes, rat, plasma; SD rats, intravenous administration, 10 mg/kg; read-out: maximum value (Cmax) of plasma concentration
Counter-ions that a name gives are not always drawn.
Test Readout: Cmax (ng/mL)
Please respond with the number in ng/mL and leave the unit unwritten.

In: May I ask what Cmax has been recorded for CN(Cc1nc2c(N3CCOCC3)nc(-c3ccc(N)cc3)nc2n1C)c1ncc(C(=O)NO)cn1 [PM, Purinostat mesylate] ?
Out: 3140
